target: Stb4 (UniProt P50104); assay: PBM E-score (8-mer binding enrichment) (E-score (-0.5 to 0.5)); higher = stronger / more preferred TF binding; settings: protein concentration: 200 nM; construct: GST-DNA-binding domain
Sequence (P50104 whole entry, the tested form may be a part): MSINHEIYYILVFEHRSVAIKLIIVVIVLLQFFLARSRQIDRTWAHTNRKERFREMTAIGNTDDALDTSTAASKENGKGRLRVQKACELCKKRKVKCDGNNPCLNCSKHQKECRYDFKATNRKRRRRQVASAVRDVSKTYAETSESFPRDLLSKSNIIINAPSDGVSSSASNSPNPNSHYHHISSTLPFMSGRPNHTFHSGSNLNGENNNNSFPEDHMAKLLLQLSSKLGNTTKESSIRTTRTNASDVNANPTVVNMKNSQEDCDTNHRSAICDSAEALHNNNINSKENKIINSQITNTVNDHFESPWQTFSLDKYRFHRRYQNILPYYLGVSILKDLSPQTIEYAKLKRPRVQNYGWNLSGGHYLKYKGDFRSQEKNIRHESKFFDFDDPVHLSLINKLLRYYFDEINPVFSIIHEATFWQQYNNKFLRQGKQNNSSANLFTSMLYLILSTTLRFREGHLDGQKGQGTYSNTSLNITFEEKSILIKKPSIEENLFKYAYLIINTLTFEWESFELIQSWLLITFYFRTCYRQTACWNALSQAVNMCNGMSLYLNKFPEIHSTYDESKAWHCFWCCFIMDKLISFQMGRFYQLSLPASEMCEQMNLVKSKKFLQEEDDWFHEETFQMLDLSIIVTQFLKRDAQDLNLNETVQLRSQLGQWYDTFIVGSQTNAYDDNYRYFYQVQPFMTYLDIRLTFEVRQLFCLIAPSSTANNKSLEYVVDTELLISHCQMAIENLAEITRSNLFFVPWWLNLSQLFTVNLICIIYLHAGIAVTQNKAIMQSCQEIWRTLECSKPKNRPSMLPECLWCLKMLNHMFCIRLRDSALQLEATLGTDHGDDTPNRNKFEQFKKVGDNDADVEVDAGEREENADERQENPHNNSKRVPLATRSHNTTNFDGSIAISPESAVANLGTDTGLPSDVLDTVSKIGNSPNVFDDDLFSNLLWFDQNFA
Whole data set: some 33,000 sequences, median “E-score (-0.5 to 0.5)” near -0.056, cut for the highest 2% near 0.38. Shown is part of a subset that was picked to be rich in the highest values.
Record form. Attribute: PBM E-score. Fill in for each entry.
One number for each entry.

// solved cases for PBM E-score follow
> print(dat)
    sequence  recorded.value
 1  TCTCCGAA           0.384
 2  ACTGTACG          -0.153
 3  CACACATG           -0.15
 4  GTTCTATA          -0.173
 5  ACTCGTAA          0.0295
 6  ACTCGGAA            0.47
 7  CAAATCCC           0.141
 8  GCTCCGAA             0.4
 9  TCCGCCAA           0.233
10  CGAGCAGC            0.15

Give one value of PBM E-score per listed sequence.
1. CGTTACTA
2. AATTCGAA
3. GTTATCCA
4. ACGGTGTC
5. TATTCGAA
6. GGTGCCGA
7. AGCCGAGA

Response:
-0.124
-0.191
0.0169
0.0812
-0.2
0.402
0.436

* * *

target: Stb4 (UniProt P50104); assay: PBM E-score (8-mer binding enrichment) (E-score (-0.5 to 0.5)); higher = stronger / more preferred TF binding; conditions: protein concentration: 200 nM; construct: GST-DNA-binding domain
The full ranking holds about 33,000 sequences; the median of “E-score (-0.5 to 0.5)” is about -0.056, and the highest 2% start at about 0.38. Only a selection was taken, and the highest values are over-represented in it overall.
Response field class: enum, chosen by comparing PBM E-score against A (below 0.04), B (0.04 to below 0.4), C (0.4 or more)

> print(dat)
   sequence  assigned.label
1  GTTCGGGA               C
2  CTTCGGGA               C
3  AAGCCGAC               B
4  AAACTGTG               A
5  CAATTTAC               A
6  CATCGGGA               B
7  CACGAGGC               A
8  AACTGTGC               A

Request: Which of the defined bands does the recorded PBM E-score of GACTCAGC sit within?
Response: A

Request: Record: ATTTTCGG
Response: C

Request: Record: CTCGGGAA
Response: C

Request: Do the same for CGATTTGA please
Response: A

* * *

target: Stb4 (UniProt P50104); experiment: PBM E-score (8-mer binding enrichment) (E-score (-0.5 to 0.5)); higher = stronger / more preferred TF binding; details: protein concentration: 200 nM; construct: GST-DNA-binding domain
The full ranking holds about 33,000 sequences; the median of “E-score (-0.5 to 0.5)” is about -0.056, and the highest 2% start at about 0.38. For the sample, the highest values were picked, then their nearest neighbours and some sequences at random.
recorded.endpoint: PBM E-score
Answers are plain numbers.

// known answers, use as guide
> print(dat)
   sequence  recorded.value
1  CCCAATCC          0.0104
2  GGGGTTTA         -0.0416
3  AGGCTCGA          -0.126

Could I get PBM E-score for every one of these entries?
1. GAGCCCCC
2. CCGAAGAG
3. ATTAGAGG
4. AGGACCCC

Response:
1: -0.168; 2: 0.417; 3: 6e-05; 4: -0.0529

Count: 7. Required value per item: PBM E-score.
1. CGTTGAGC
2. CTCGGAGA
3. CCGAGAAC
4. CACCATGG
5. GCGAAATA
6. ACGAGAAC
7. ACGAAATA

Response:
-0.0224
0.406
0.414
-0.29
0.0947
-0.149
-0.111

Record PBM E-score for all entries; do not skip any.
1. ATCAACAC
2. AAGGCTAC
3. TGCCAAAA
4. ACTGATAC
5. AACATTCA
6. ACGCTCGG
7. ACGAGAAG
8. GAATGCGA

Response:
[-0.101, -0.0344, -0.0796, 0.0597, -0.00804, 0.42, -0.264, 0.0718]

Hi! Can you tell me PBM E-score for each of these sequences?
1. GCCCGACA
2. AAGTCGGG
3. GTGATGGA
4. AATCCGAA
5. CGTCCGAA
6. ATTTGGGG
7. CGGGTACC
8. ACTTGGTA

Response:
[0.187, 0.306, -0.00596, 0.42, 0.336, -0.0633, 0.312, -0.265]

* * *

biological target: Stb4 (UniProt P50104); assay: PBM E-score (8-mer binding enrichment) (E-score (-0.5 to 0.5)); higher = stronger / more preferred TF binding; details: protein concentration: 200 nM; construct: GST-DNA-binding domain
Over roughly 33,000 sequences, “E-score (-0.5 to 0.5)” has its median near -0.056; the highest 2% begin near 0.38. The sample holds the highest values, similar sequences and a random draw of the others, so the mix is not that of the screen.
Classify by measured PBM E-score: Satisfied if it is equal to or exceeds -0.2, Not satisfied if it is smaller.

> print(dat)
   sequence  assigned.label
1  TGAGAACA   Not satisfied

Now consider a different sequence.
Request: Hello, I need to know if ACCACATG has measured PBM E-score not below -0.2. Thanks!
Response: Satisfied

* * *

target: Stb4 (UniProt P50104); test: PBM E-score (8-mer binding enrichment) (E-score (-0.5 to 0.5)); higher = stronger / more preferred TF binding; details: protein concentration: 200 nM; construct: GST-DNA-binding domain
In all, about 33,000 sequences were measured (“E-score (-0.5 to 0.5)”: median about -0.056, highest 2% from about 0.38 on). This excerpt belongs to a sample that is enriched for the highest values.
Provide the recorded PBM E-score for the entries that follow.
Give bare numbers.

Can you give me PBM E-score for all of these, one by one?
1. CGATCCGA
2. AAAGCTCA
3. CGTCCTGA
4. AAATCCCG
5. CCGGATCC
6. CGATCCCG

Response:
1. 0.475
2. -0.202
3. -0.249
4. 0.339
5. 0.395
6. 0.342

* * *

molecular target: Stb4 (UniProt P50104); assay: PBM E-score (8-mer binding enrichment) (E-score (-0.5 to 0.5)); higher = stronger / more preferred TF binding; details: protein concentration: 200 nM; construct: GST-DNA-binding domain
The full ranking holds about 33,000 sequences; the median of “E-score (-0.5 to 0.5)” is about -0.056, and the highest 2% start at about 0.38. The list comes from a sample in which the highest values are over-represented; it also holds close analogues and randomly drawn sequences.
I'd appreciate it if you could supply PBM E-score values for the items below.
One number for each entry.

Below: 5 sequences and their reported PBM E-score.
> print(dat)
   sequence  recorded.value
1  AATCAATC           0.055
2  ACTTATCT          -0.211
3  GACGTTGC        -0.00479
4  TACGAACA          -0.191
5  AAGGCCTT          -0.207

# per-item lookup of PBM E-score; items listed below
1. CGCGAACC
2. CGCTTCCA
3. TCCGAACA
4. CAGGAAGG
5. ATTTTCCG
6. AGTTTCCC

Response:
[0.166, -0.0326, 0.447, -0.208, 0.424, 0.132]

* * *

target: Stb4 (UniProt P50104); assay: PBM E-score (8-mer binding enrichment) (E-score (-0.5 to 0.5)); higher = stronger / more preferred TF binding; details: protein concentration: 200 nM; construct: GST-DNA-binding domain
Over roughly 33,000 sequences, “E-score (-0.5 to 0.5)” has its median near -0.056; the highest 2% begin near 0.38. The sample as a whole holds a higher share of the highest values than the screen did.
Definition: the class of an entry is the range in low group: < -0.02; middle group: ≥ -0.02 and < 0.3; high group: ≥ 0.3 that contains its PBM E-score.

A selection of reference data follows.
> print(dat)
   sequence  assigned.label
1  CGAGCCAA    middle group
2  ACGAGACG    middle group
3  ACCCCGGA    middle group
4  AGCCCGGA      high group
5  CGCCCGGA      high group

Request: Hi there! Could you help me figure out the category for CCTCGGAG please?
Response: high group

Request: Similarly, CGCTCCCA ?
Response: low group

Request: What about CCGAGACC ?
Response: high group

Request: Next up: GGAGCCGA
Response: high group

Request: Also, CACTCTTC please.
Response: low group

Request: Do the same for GCACCATA please
Response: low group
